// reported mass density per item
Conditions: 313.15 K; 40000 kPa; Liquid; Vibrating tube method
Quick note: give the figure in kg/m3, leave out the unit.

Record excerpt, results attached:
> print(dat)
                                   molecule  numeric.result
1  CCCC[n+]1cccc(C)c1.N#C[N-]C#N [1-butyl-3-methylpyridinium dicyanamide]         1055.42
2  CCCC[n+]1ccccc1.O=S(=O)([O-])C(F)(F)F [1-butylpyridinium trifluoromethanesulfonate]         1325.67
3  CCC[n+]1ccccc1Oc1ccc(Cl)c[n+]1CCOS(=O)(=O)[O-].F[B-](F)(F)F         1259.52

For this molecule ( CCCC[n+]1ccccc1.F[B-](F)(F)F [1-butylpyridinium tetrafluoroborate] ), measured mass density is 1221.56

For this molecule ( CCCCCCCC[n+]1cccc(C)c1.F[B-](F)(F)F [N-octyl-3-methylpyridinium tetrafluoroborate] ), measured mass density is 1105.37

The origin of these recorded values is the NIST ThermoML archive (doi:10.1016/j.fluid.2011.12.029).
